// provenance: patent EP1248603B1

- Assayed target: NS3 Proteinase (Hepatitis C virus genotype 1b, UniProt P26663)
- Construct: beschriebenen NS3 Proteinase-Assay bestimmt
- Sequence (P26663 1027-1657, other chains not shown): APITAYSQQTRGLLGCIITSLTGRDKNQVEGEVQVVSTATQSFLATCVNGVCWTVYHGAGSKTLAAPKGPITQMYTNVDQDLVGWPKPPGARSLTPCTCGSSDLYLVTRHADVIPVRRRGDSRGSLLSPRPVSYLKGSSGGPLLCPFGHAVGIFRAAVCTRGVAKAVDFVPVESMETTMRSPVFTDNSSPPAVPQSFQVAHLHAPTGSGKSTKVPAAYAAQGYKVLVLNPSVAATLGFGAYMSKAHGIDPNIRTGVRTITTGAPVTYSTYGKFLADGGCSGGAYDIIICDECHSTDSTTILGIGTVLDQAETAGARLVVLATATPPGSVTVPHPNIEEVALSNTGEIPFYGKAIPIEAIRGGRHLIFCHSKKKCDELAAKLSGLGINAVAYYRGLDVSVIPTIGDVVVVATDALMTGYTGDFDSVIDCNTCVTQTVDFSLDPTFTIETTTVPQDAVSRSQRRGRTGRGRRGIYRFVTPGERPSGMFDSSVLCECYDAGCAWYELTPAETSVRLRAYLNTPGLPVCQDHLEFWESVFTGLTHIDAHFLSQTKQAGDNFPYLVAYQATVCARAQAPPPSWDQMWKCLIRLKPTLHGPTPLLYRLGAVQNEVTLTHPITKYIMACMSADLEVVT
- Protocol details: NS3 proteinase assay (analogous to Taliani et al., Analytical Biochemistry 240 (1996) 60-67; evaluation with GraFit 4)
- Assay type: biochemical
Parameter: IC50 (µM)
Supply the numeric figure in µM, leaving out any unit text.

get_value(item= O=C1C=CC(=O)c2ccccc21 , readout=IC50) returns 20

---

- Assayed target: NS3 Proteinase (Hepatitis C virus genotype 1b, UniProt P26663)
- Construct: beschriebenen NS3 Proteinase-Assay bestimmt
- Protocol details: NS3 proteinase assay (analogous to Taliani et al., Analytical Biochemistry 240 (1996) 60-67; evaluation with GraFit 4)
- Format: biochemical
- Details: read-out: IC50
- From the text: Die IC50-Werte wurden analog zu dem in: M. Taliani et al., Analytical Biochemistry, 240 (1996) 60-67 beschriebenen NS3 Proteinase-Assay bestimmt. Die Auswertung erfolgte mit Hilfe des Programms "GraFit 4" der Firma Erithacus Software Ltd. (Staines, Middlesex, UK).
IC50 values by entry
# output: numeric value plus its unit

The following molecules have reported results that may help.
Nc1ccc(O)c2ccccc12 [Beispiel 3, 1-Amino-4-naphthol] | 13 µM
Oc1ccc(NCc2ccccc2)c2ccccc12 [Beispiel 4, 1-Benzylamino-4-naphthol] | 25 µM
Nc1ccc(O)c2ncccc12 [Beispiel 5, 5-Amino-8-hydroxychinolin] | 51 µM

Query molecule follows.
For reference, reported IC50 for CC1=CC(=O)c2ccccc2C1=O [Beispiel 1, Menadion] stands at 45 µM
